Target: E6 WT/E6AP (Human papillomavirus type 16)
Experiment: biochemical
Type: binding
Conditions: 24 h, read-out: FP maximal inhibition (max %) E6 WT/E6AP
Classification field: enter T for Emax values not below 60%, F for values below it.

Worked cases, answers included:
STRUCTURE_SMILES_STRING: C=CC(=O)N1CCN(c2nc(CCc3ccc(F)cc3)nc3ccccc23)CC1
ASSIGNED_CATEGORY: T

STRUCTURE_SMILES_STRING: C=CC(=O)N1CCN(c2nc(Cc3ccc(F)cc3)nc3sc4c(c23)CCCC4)CC1
ASSIGNED_CATEGORY: F

STRUCTURE_SMILES_STRING: C=CC(=O)N1CCN(c2nc(-c3ccc(OC)cc3F)nc3ccccc23)CC1
ASSIGNED_CATEGORY: T

STRUCTURE_SMILES_STRING: C=CC(=O)N1CCN(c2nc(CCc3cccc(F)c3)nc3ccccc23)CC1
ASSIGNED_CATEGORY: T

STRUCTURE_SMILES_STRING: C=CC(=O)N1CCN(c2nc(-c3ccc(OC(F)(F)F)cc3)nc3ccccc23)CC1
ASSIGNED_CATEGORY: T

// query # check: Emax of "C=CC(=O)N1CCN(c2nc(-c3ccccc3)nc3sc4c(c23)CCCC4)CC1" is greater than or equal to 60%
// result F

// query # check: Emax of "C=CC(=O)N1CCN(c2nc(-c3ccc(OC)cc3)nc3ccccc23)CC1" is greater than or equal to 60%
// result T

// query # check: Emax of "C=CC(=O)N1CCN(c2nc(CCc3ccc(F)cc3)nc3sc4c(c23)CCCC4)CC1" is greater than or equal to 60%
// result F

// query # check: Emax of "C=CC(=O)N1CCN(c2nc(CCc3cccc(OC)c3)nc3sc4c(c23)CCCCC4)CC1" is greater than or equal to 60%
// result F

----------
Target: E6 WT/E6AP (Human papillomavirus type 16, UniProt P03126)
Sequence (P03126 8-158): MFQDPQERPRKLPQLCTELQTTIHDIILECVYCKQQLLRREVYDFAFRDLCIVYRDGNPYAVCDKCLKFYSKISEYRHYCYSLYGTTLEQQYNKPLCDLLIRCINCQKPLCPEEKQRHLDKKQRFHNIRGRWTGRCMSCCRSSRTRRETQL
Assay: biochemical
Format: binding
Conditions: 24 h, read-out: FP maximal inhibition (max %) E6 WT/E6AP
MEASURE: Emax (%)
Report the figure in % without appending any unit label.

STRUCTURE_SMILES_STRING: COc1cccc(CCc2nc(N3CCN(C(=O)/C=C/CN(C)C)CC3)c3c4c(sc3n2)CCCC4)c1
UNIT: %
Emax: 100

// query Param item = "COc1cccc(CCc2nc(N3CCN(C(=O)/C=C/CN(C)C)CC3)c3ccccc3n2)c1" ; retrieve measured Emax.
// result 100

// query Param item = "C=CC(=O)N1CCN(c2nc(CCc3ccc(OC)cc3)nc3sc4c(c23)CCCC4)CC1" ; retrieve measured Emax.
// result 63

// query Param item = "C=CC(=O)N1CCN(c2nc(CCc3cccc(OC)c3)nc3ccccc23)CC1" ; retrieve measured Emax.
// result 93

// query Param item = "C=CC(=O)N1CCN(c2nc(-c3cccc(OC)c3)nc3ccccc23)CC1" ; retrieve measured Emax.
// result 91

----------
Molecular target: E6C51S/E6AP (Human papillomavirus type 16, UniProt P03126, C58S)
Sequence (P03126 whole entry C58S, looked up): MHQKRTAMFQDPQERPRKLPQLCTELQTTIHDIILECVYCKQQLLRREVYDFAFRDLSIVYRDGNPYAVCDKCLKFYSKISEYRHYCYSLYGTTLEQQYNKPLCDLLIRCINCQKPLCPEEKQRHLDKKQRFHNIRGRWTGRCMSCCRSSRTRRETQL
Test: BLI binding assay, E6 C51S binding to captured E6AP
Design: species or system HPV-16
Settings: at 24 h; E6 C51S
MEASURE: BLI maximal Inhibition (max %) E6C51S/E6AP

# annotated cases, reported BLI maximal Inhibition (max %) E6C51S/E6AP shown
STRUCTURE_SMILES_STRING: COc1cccc(CCc2nc(N3CCN(C(=O)/C=C/CN(C)C)CC3)c3ccccc3n2)c1
ASSAY_SYSTEM: E6C51S/E6AP (Human papillomavirus type 16, UniProt P03126, C58S)
ENDPOINT_VALUE: (max 100%)
--
STRUCTURE_SMILES_STRING: C=CC(=O)N1CCN(c2nc(-c3ccccc3)nc3ccccc23)CC1
ASSAY_SYSTEM: E6C51S/E6AP (Human papillomavirus type 16, UniProt P03126, C58S)
ENDPOINT_VALUE: (max 100%)
--
STRUCTURE_SMILES_STRING: C=CC(=O)N1CCN(c2nc(Cc3ccc(F)cc3)nc3sc4c(c23)CCCC4)CC1
ASSAY_SYSTEM: E6C51S/E6AP (Human papillomavirus type 16, UniProt P03126, C58S)
ENDPOINT_VALUE: (max 100%)
--
STRUCTURE_SMILES_STRING: C=CC(=O)N1CCN(c2nc(CCc3cccc(OC)c3)nc3sc4c(c23)CCCCC4)CC1
ASSAY_SYSTEM: E6C51S/E6AP (Human papillomavirus type 16, UniProt P03126, C58S)
ENDPOINT_VALUE: (max 100%)

# input for lookup
// query Param item = "O=C(CCl)N1CCN(c2nc(CCc3ccccc3)nc3sc4c(c23)CCCC4)CC1" ; retrieve measured BLI maximal Inhibition (max %) E6C51S/E6AP.
// result (max 100%)

The origin of these recorded values is patent US12533339B2.
